Test system: chain of tracheal rings of guinea pigs
Test: relaxing action on chain of tracheal rings in vitro (bronchospasmolytic action)
Design: species or system guinea pig
Settings: Cavia porcellus; Column A; negative logarithm of EC50 in mol/l; 50% of maximum relaxation by (-)isoprenaline; read-out: -lg[EC50] trachea (converted)
Rule: EC50 below 400 nM gives YES, anything at or above gives NO.

Use these answered entries as a reference point.
INSERT INTO measurements (compound, labelclass) VALUES
  ('C=CCOc1ccc(-c2ccc(=O)[nH]n2)cc1OC', 'NO'),
  ('COc1ccc(-c2ccc(=O)[nH]n2)cc1OCCC(C)C', 'NO'),
  ('COc1cc(-c2ccc(=O)[nH]n2)ccc1OCCC(C)C', 'NO'),
  ('COc1cc(-c2ccc(=O)[nH]n2)ccc1OCC(C)C', 'YES');

Quick check: does CCCOc1ccc(-c2ccc(=O)[nH]n2)cc1OC have EC50 under 400 nM?
NO

Quick check: does CCC(C)Oc1ccc(-c2ccc(=O)[nH]n2)cc1OC (stereo not drawn) have EC50 under 400 nM?
NO

Quick check: does C=CCOc1cc(-c2ccc(=O)[nH]n2)ccc1OC have EC50 under 400 nM?
NO

Quick check: does COc1ccc(-c2ccc(=O)[nH]n2)cc1OC(C)C have EC50 under 400 nM?
YES

Quick check: does CCCOc1ccc(-c2ccc(=S)[nH]n2)cc1OC have EC50 under 400 nM?
NO

---

System: guinea pig hearts isolated and perfused by the Langendorff method
Test: left-ventricular pressure and heart rate in isolated perfused Langendorff hearts
Details: at EC20
propertyLabel: Percentage increase in heart rate at EC20 (%)
State the answer as a number, implicitly in %.

INSERT INTO measurements (molecule, systemname, reportedvalue) VALUES
  ('C=CCOc1ccc(-c2ccc(=O)[nH]n2)cc1OC', 'guinea pig hearts isolated and perfused by the Langendorff method', 3),
  ('COc1ccc(-c2ccc(=O)[nH]n2)cc1', 'guinea pig hearts isolated and perfused by the Langendorff method', 6),
  ('CCCOc1cc(-c2ccc(=O)[nH]n2)ccc1OC', 'guinea pig hearts isolated and perfused by the Langendorff method', 9),
  ('Nc1cc(-c2ccncc2)c[nH]c1=O [Amrinone, amrinone, reference compound]', 'guinea pig hearts isolated and perfused by the Langendorff method', 7),
  ('C=CCOc1cc(-c2ccc(=O)[nH]n2)ccc1OC', 'guinea pig hearts isolated and perfused by the Langendorff method', 7);

Recorded Percentage increase in heart rate at EC20 of CCC(C)Oc1ccc(-c2ccc(=O)[nH]n2)cc1OC (stereo not shown) , please.
3

Recorded Percentage increase in heart rate at EC20 of CCOc1ccc(-c2ccc(=O)[nH]n2)cc1OC , please.
6

---

# maps each entry to its LD50 at 168 h
Assay: toxicity studies, mouse p.o.
Settings: in vivo, po; Column F; mouse p.o.; 7 days observation; read-out: Approximate LD50
State the answer as a number, implicitly in mg/kg.

The cases that follow already have their LD50 at 168 h on record.
INSERT INTO measurements (compound, propertylabel, reportedvalue) VALUES
  ('CCCOc1ccc(-c2ccc(=O)[nH]n2)cc1OC [compound 2]', 'LD50 at 168 h', 530),
  ('COc1ccc(-c2ccc(=O)[nH]n2)cc1OCCC(C)C [compound 12]', 'LD50 at 168 h', 960),
  ('CCOc1cc(-c2ccc(=O)[nH]n2)ccc1OC [compound 8]', 'LD50 at 168 h', 550),
  ('COc1cc(-c2ccc(=O)[nH]n2)ccc1OC(C)C [compound 1]', 'LD50 at 168 h', 270),
  ('CCCOc1cc(-c2ccc(=O)[nH]n2)ccc1OC [Serial No. 10]', 'LD50 at 168 h', 770),
  ('COc1ccc(-c2ccc(=O)[nH]n2)cc1OC(C)C [Serial No. 11]', 'LD50 at 168 h', 600);

Recorded LD50 at 168 h of C=CCOc1cc(-c2ccc(=O)[nH]n2)ccc1OC [compound 9] , please.
610

---

System: histamine-induced bronchospasm
Assay: inhibition of histamine-induced bronchospasm in anesthetized guinea pigs
Format: in vivo, guinea pig
Details: 20 μmol/kg i.v.; 20 min
propertyLabel: inhibition of histamine-induced bronchospasm, Vmaxi (%)
State the answer as a number, implicitly in %.

INSERT INTO assay_data (molecule, readoutunits, reportedvalue) VALUES
  ('COc1cc(-c2ccc(=O)[nH]n2)ccc1OCC(C)C', '%', 48);

Recorded inhibition of histamine-induced bronchospasm, Vmaxi of COc1ccc(-c2ccc(=O)[nH]n2)cc1OCC(C)C , please.
110

Recorded inhibition of histamine-induced bronchospasm, Vmaxi of Cn1c(=O)c2[nH]cnc2n(C)c1=O [Theophylline, theophylline, reference compound] , please.
8

Recorded inhibition of histamine-induced bronchospasm, Vmaxi of COc1ccc(-c2ccc(=O)[nH]n2)cc1OC(C)C , please.
89

---

Tested on: histamine-induced bronchospasm
Assay: inhibition of histamine-induced bronchospasm in anesthetized guinea pigs
Format: in vivo, guinea pig
Conditions: 20 μmol/kg i.v.; 2 min
Experimental: A method for simultaneously recording pharmacodynamic and toxic effects on internal sensitive receptors, on the respiration and the cardiovascular system of guinea pigs was used [U. Kilian, E. Muller, E. Ch. […] To characterize the bronchospasm induced by histamine (0.09-0.18 μmol /kg i.v.), the maximum flow rate of the respiratory air during inspiration (Vmaxi) and expiration (Vmaxe) and the breath volume (BVi) were measured. […]
# maps each entry to its inhibition of histamine-induced bronchospasm, Vmaxi
State the answer as a number, implicitly in %.

The cases that follow already have their inhibition of histamine-induced bronchospasm, Vmaxi on record.
INSERT INTO assay_data (compound, reportedvalue) VALUES
  ('COc1ccc(-c2ccc(=O)[nH]n2)cc1OC(C)C', 152),
  ('COc1cc(-c2ccc(=O)[nH]n2)ccc1OCC(C)C', 154),
  ('Cn1c(=O)c2[nH]cnc2n(C)c1=O [Theophylline, theophylline, reference compound]', 49);

Please turn your attention to the following entry.
Recorded inhibition of histamine-induced bronchospasm, Vmaxi of COc1ccc(-c2ccc(=O)[nH]n2)cc1OCC(C)C , please.
172

---

# maps each entry to its EC50
System: chain of tracheal rings of guinea pigs
Experiment: relaxing action on chain of tracheal rings in vitro (bronchospasmolytic action)
Parameters: species or system guinea pig
Conditions: Cavia porcellus; Column A; negative logarithm of EC50 in mol/l; 50% of maximum relaxation by (-)isoprenaline; read-out: -lg[EC50] trachea (converted)
Returns: string containing the number followed by the unit.

The cases that follow already have their EC50 on record.
INSERT INTO measurements (structuresmilesstring, systemname, reportedvalue) VALUES
  ('CCOc1cc(-c2ccc(=O)[nH]n2)ccc1OC', 'chain of tracheal rings of guinea pigs', '339 nM'),
  ('CCCOc1cc(-c2ccc(=O)[nH]n2)ccc1OC', 'chain of tracheal rings of guinea pigs', '468 nM'),
  ('COc1ccc(-c2ccc(=O)[nH]n2)cc1', 'chain of tracheal rings of guinea pigs', '8910 nM');

Recorded EC50 of COc1ccc(-c2ccc(=S)[nH]n2)cc1OCC(C)C , please.
4070 nM

Recorded EC50 of CCOc1ccc(-c2ccc(=O)[nH]n2)cc1OC , please.
1320 nM

Recorded EC50 of COc1ccc(-c2ccc(=S)[nH]n2)cc1OC(C)C , please.
7240 nM

Recorded EC50 of CCCCOc1ccc(-c2ccc(=O)[nH]n2)cc1OC , please.
2510 nM

Recorded EC50 of CCOc1cc(-c2ccc(=S)[nH]n2)ccc1OC , please.
1410 nM

Recorded EC50 of COc1cc(-c2ccc(=O)[nH]n2)ccc1OC(C)C , please.
1910 nM

Recorded EC50 of COc1ccc(-c2ccc(=O)[nH]n2)cc1OCC(C)C , please.
724 nM

---

Test system: chain of tracheal rings of guinea pigs
Test: relaxing action on chain of tracheal rings in vitro (bronchospasmolytic action)
Set-up: species or system guinea pig
Conditions: Column D; trachea
propertyLabel: [EC50] theophylline / [EC50] substance
Form field (numeric): enter value without unit.

The cases that follow already have their [EC50] theophylline / [EC50] substance on record.
INSERT INTO assay_data (compound, reportedvalue) VALUES
  ('COc1ccc(-c2ccc(=O)[nH]n2)cc1 [compound 19]', 15.1),
  ('COc1ccc(-c2ccc(=O)[nH]n2)cc1OC(C)C [Serial No. 11]', 1370),
  ('CCCOc1ccc(-c2ccc(=S)[nH]n2)cc1OC [Serial No. 13]', 43.7),
  ('CCCCOc1ccc(-c2ccc(=O)[nH]n2)cc1OC [Serial No. 3]', 53.8),
  ('CCC(C)Oc1ccc(-c2ccc(=O)[nH]n2)cc1OC (stereo not shown) [Serial No. 7]', 102);

Recorded [EC50] theophylline / [EC50] substance of C=CCOc1cc(-c2ccc(=O)[nH]n2)ccc1OC [compound 9] , please.
251

Recorded [EC50] theophylline / [EC50] substance of CCCOc1cc(-c2ccc(=O)[nH]n2)ccc1OC [Serial No. 10] , please.
288
